Reference source for all entries: patent US20230174523A1

Target: TRAP1 enzyme (Homo sapiens)
Sequence (Q12931 60-704): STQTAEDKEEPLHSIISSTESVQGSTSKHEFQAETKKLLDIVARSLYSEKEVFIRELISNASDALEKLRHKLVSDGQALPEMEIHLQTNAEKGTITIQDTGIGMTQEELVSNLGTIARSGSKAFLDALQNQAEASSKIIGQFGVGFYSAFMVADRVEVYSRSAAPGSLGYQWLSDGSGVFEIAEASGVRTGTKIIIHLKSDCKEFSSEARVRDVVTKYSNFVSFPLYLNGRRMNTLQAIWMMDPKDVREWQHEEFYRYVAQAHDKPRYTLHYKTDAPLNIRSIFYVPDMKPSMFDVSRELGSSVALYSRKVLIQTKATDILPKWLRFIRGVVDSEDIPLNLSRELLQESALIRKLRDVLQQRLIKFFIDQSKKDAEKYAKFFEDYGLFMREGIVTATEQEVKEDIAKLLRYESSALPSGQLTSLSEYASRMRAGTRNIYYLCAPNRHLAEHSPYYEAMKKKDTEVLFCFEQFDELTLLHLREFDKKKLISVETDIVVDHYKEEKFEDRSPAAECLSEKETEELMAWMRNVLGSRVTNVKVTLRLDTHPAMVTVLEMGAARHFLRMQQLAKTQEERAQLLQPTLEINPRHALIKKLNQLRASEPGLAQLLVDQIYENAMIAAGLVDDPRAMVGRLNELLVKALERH
Assay: ADP Glo assay of TRAP1 ATPase activity
Assay type: biochemical
Details: read-out: ADP GLO DRC: Mean Emax
Emax values for the compounds below.
observed.property: Emax

compound	observed.property	result
COc1ccc(NC(=O)c2ccc(Cn3cc(Cl)cn3)cc2)cc1S(=O)(=O)Nc1c(C)cccc1C	Emax	160 to 199%
COc1ccc(NC(=O)c2cc(F)cc(Br)c2C)cc1S(=O)(=O)Nc1c(C)cccc1C	Emax	123 to 159%
COc1ccc(NC(=O)c2ncc(-c3ccccc3)o2)cc1S(=O)(=O)Nc1cc2ccccc2nn1	Emax	160 to 199%
COc1ccc(NC(=O)c2ncc(-c3ccccc3)o2)cc1S(=O)(=O)Nc1c(C)cccc1C#N	Emax	160 to 199%
COc1ccc(NC(=O)c2cn(C)nc2C(F)F)cc1S(=O)(=O)Nc1c(C)cccc1C	Emax	160 to 199%
COc1ccc(NC(=O)c2cccc3cnccc23)cc1S(=O)(=O)Nc1c(C)cccc1C	Emax	160 to 199%
COc1ccc(NC(=O)c2coc(-c3cc(F)c(F)c(F)c3)n2)cc1S(=O)(=O)Nc1c(C)csc1C	Emax	123 to 159%
COc1ccc(NC(=O)c2cccnc2-c2cc(F)cc(F)c2)cc1S(=O)(=O)Nc1c(C)cccc1C	Emax	123 to 159%
COc1ccc(NC(=O)c2cccc(-c3noc(C)n3)c2)cc1S(=O)(=O)Nc1c(C)cccc1C	Emax	200 to 300%
COc1ccc(NC(=O)c2cnc(-c3ccccc3)[nH]2)cc1S(=O)(=O)N(CCCCCCN)c1ccc(Br)cc1	Emax	160 to 199%
COc1ccc(NC(=O)c2ccc3nc(C)sc3c2)cc1S(=O)(=O)Nc1c(C)cccc1C	Emax	> 300%
COc1ccc(NC(=O)c2cc(F)ccc2OC(F)(F)F)cc1S(=O)(=O)Nc1c(C)cccc1C	Emax	160 to 199%
COc1ccc(NC(=O)c2ccc(N3CCCC3)c(F)c2)cc1S(=O)(=O)Nc1c(C)cccc1C	Emax	160 to 199%
COc1ccc(NC(=O)c2ccc3nc(C)ccc3c2)cc1S(=O)(=O)Nc1c(C)cccc1C	Emax	200 to 300%
COc1ccc(NC(=O)c2ccc3c(c2)C2CCCS2(=O)=N3)cc1S(=O)(=O)Nc1c(C)cccc1C (stereo not drawn)	Emax	200 to 300%
CC(C)(C)OC(=O)c1ccccc1C(=O)Nc1ccc(F)c(S(=O)(=O)Nc2ccc(Cl)cc2)c1	Emax	123 to 159%
Cc1nc2cc(C(=O)Nc3ccc(F)c(S(=O)(=O)Nc4ccc(Cl)cc4)c3)ccc2n1-c1ccccc1	Emax	123 to 159%
COc1ccc(NC(=O)c2ncc(-c3ccccc3)o2)cc1S(=O)(=O)Nc1cccc(C(F)(F)F)n1	Emax	200 to 300%
COc1ccc(NC(=O)c2cccc3nc(C)sc23)cc1S(=O)(=O)Nc1c(C)cccc1C	Emax	200 to 300%
COc1ccc(NC(=O)c2ncccc2-c2ccccc2)cc1S(=O)(=O)Nc1c(C)cccc1C	Emax	200 to 300%
COc1ccccc1-c1nc(C(=O)Nc2ccc(OC)c(S(=O)(=O)Nc3ccc(Br)cc3)c2)c[nH]1	Emax	160 to 199%
COc1ccc(NC(=O)c2cccc3nccnc23)cc1S(=O)(=O)Nc1c(C)cccc1C	Emax	160 to 199%
COc1ccc(NC(=O)c2ccc3c(Br)nn(C)c3c2)cc1S(=O)(=O)Nc1c(C)cccc1C	Emax	200 to 300%
Cc1nn(C)c2sc(C(=O)Nc3ccc(F)c(S(=O)(=O)Nc4ccc(Cl)cc4)c3)cc12	Emax	160 to 199%
COc1ccc(NC(=O)c2csc(-c3cc(F)c(F)c(F)c3)n2)cc1S(=O)(=O)Nc1c(C)csc1C	Emax	123 to 159%
COc1ccc(NC(=O)c2ccc3nsnc3c2)cc1S(=O)(=O)Nc1c(C)cccc1C	Emax	200 to 300%
COc1ccc(NC(=O)c2cnn(-c3ccccc3)c2)cc1S(=O)(=O)Nc1c(C)cccc1C	Emax	200 to 300%
O=C(Nc1cccc(S(=O)(=O)Nc2ccc(Cl)cc2)c1)c1ncc(-c2ccccc2)o1	Emax	123 to 159%
COc1ccc(NC(=O)c2cccc(-c3ccnn3C)c2)cc1S(=O)(=O)Nc1c(C)cccc1C	Emax	> 300%
COc1ccc(NC(=O)c2cccc3c2OC(C)(C)CC3)cc1S(=O)(=O)Nc1c(C)cccc1C	Emax	200 to 300%
